- Test system: RPMI-8226
- method.notes: NCI tumour cell line growth inhibition, 48 h
Activity calls are given as the source filed them. No stated cut-off is given here; in the data, active = GI50 up to about 1.1 µM and inactive = higher.
Bench note: report the call from active, inactive

Query :: For this compound, state the assay outcome: CCCCc1ccc(-n2sc3ncc([N+](=O)[O-])cc3c2=O)cc1
Result :: inactive

Query :: For this compound, state the assay outcome: COc1cccc(NC(=O)CC(=O)NNCC(=O)Nc2nnc(-c3ccc(N(CCC#N)S(=O)(=O)c4ccccc4)cc3)s2)c1
Result :: inactive

Query :: For this compound, state the assay outcome: CNC(=S)N/N=C(\C)c1cc(OC)c(OC)cc1O
Result :: inactive

Query :: For this compound, state the assay outcome: C=CC(C)(C)N[C@@H](C(=O)N1CCC[C@H]1c1nc(-c2nc(C(=O)OCC=C(C)C)c(C)o2)c(C)o1)C(C)C
Result :: inactive

Query :: For this compound, state the assay outcome: CC[C@@]1(O)C(=O)OCc2c1cc1n(c2=O)Cc2c-1nc1ccccc1c2/C=N\NC(=O)C(N)Cc1ccc(O)cc1 (some centres not stated)
Result :: active

Query :: For this compound, state the assay outcome: O=C1CC(c2ccccc2)n2c(nc3ccccc32)N1 (configuration not stated)
Result :: inactive

Query :: For this compound, state the assay outcome: O=S(=O)(Nc1ccccc1S(=O)(=O)c1ccccc1)c1ccccc1
Result :: inactive

Query :: For this compound, state the assay outcome: O=C1Nc2ccc(S(=O)(=O)O)cc2/C1=N/Nc1ccccc1[N+](=O)[O-]
Result :: inactive

Query :: For this compound, state the assay outcome: O=c1c2ccccc2[nH]c2c(O)ccc(O)c12
Result :: inactive

Query :: For this compound, state the assay outcome: Cc1cc(=O)cc2sc3c(C)cccc3nc1-2
Result :: inactive

Query :: For this compound, state the assay outcome: CCCCCCC(=O)C/C(=N/NC(N)=S)C(=O)NC1C2CC3CC(C2)CC1C3 (configuration not stated)
Result :: inactive

Query :: For this compound, state the assay outcome: N#Cc1nc(-c2cnccn2)oc1N
Result :: inactive

Query :: For this compound, state the assay outcome: C#CC(C)(C)Oc1cc(OC)c2c(=O)c3ccccc3n(C)c2c1
Result :: inactive

Query :: For this compound, state the assay outcome: CNc1ccc(Cl)cc1C(=O)N1CCC[C@H]1CO
Result :: inactive

Query :: For this compound, state the assay outcome: Cc1nc(-n2nc(-c3ccccc3)cc2-c2ccccc2)sc1C(/C=C/c1ccc([N+](=O)[O-])cc1)=N/NC(N)=S
Result :: inactive

Query :: For this compound, state the assay outcome: CN1C(=O)c2ccccc2NC(=O)C12O[C@@H]2c1ccccc1 (some centres not stated)
Result :: inactive

Query :: For this compound, state the assay outcome: CCO[C@H]1O[C@@H]2OC3(C)CCC4[C@H](C)CCC([C@H]1C)[C@]42OO3 (some centres not stated)
Result :: inactive

Query :: For this compound, state the assay outcome: C=Cc1ccccc1C1(O)C=CC(OC)(OC)C=C1
Result :: inactive

Query :: For this compound, state the assay outcome: COC1CCC(=C2C(=O)OC(C)(C)OC2=O)N1 (configuration not stated)
Result :: inactive

Query :: For this compound, state the assay outcome: CC(=O)Nc1ccc2cc(C)c(O)nc2n1
Result :: inactive

Query :: For this compound, state the assay outcome: CCOC(=O)c1[nH]cc(C)c1-c1c[nH]c2ccccc12
Result :: inactive

Query :: For this compound, state the assay outcome: CCOC(=O)C(C)N1C(=O)c2ccccc2S1(=O)=O (configuration not stated)
Result :: inactive

----------
Field: GI50. Provide a value for each of the compounds that follow.
- Test system: DU-145
- method.notes: NCI tumour cell line growth inhibition, 48 h
Active and inactive are the calls of the source. Rule as the data show it: active = GI50 up to about 1.1 µM and inactive = higher.

Query :: Report GI50 for CC(C)(C)n1c(=O)[nH]n(C2NN=Cc3cccc4cccc2c34)c1=O (stereo unspecified) please.
Result :: > 100 µM (inactive)

Query :: Report GI50 for O=C1Nc2ccc(S(=O)(=O)O)cc2/C1=N/Nc1ccccc1[N+](=O)[O-] please.
Result :: > 100 µM (inactive)

Query :: Report GI50 for COc1cc(C2C3C=CC=C4CC=CC(=C43)C3CCC(=O)N32)cc(OC)c1OC (stereo unspecified) please.
Result :: > 100 µM (inactive)

Query :: Report GI50 for COc1cc2c(cc1OC)-c1cc3ccccc3c(=O)n1CCC2 please.
Result :: 10.7 µM (inactive)

Query :: Report GI50 for O=c1[nH]c(=O)n(C2OC(CO)C(O)C2O)cc1OCCc1ccccc1 (stereo unspecified) please.
Result :: > 100 µM (inactive)

Query :: Report GI50 for CC1COC(c2cn[nH]c2C(N)=O)C1O (stereo unspecified) please.
Result :: > 100 µM (inactive)

Query :: Report GI50 for C=C1CC2(CCCC3(CC(=C)C(=O)O3)C2(C)C)OC1=O (stereo unspecified) please.
Result :: 3.73 µM (inactive)

Query :: Report GI50 for COC(=O)[C@H](CCSC)NC(=O)N[C@H](C)c1ccccc1 please.
Result :: > 100 µM (inactive)

Query :: Report GI50 for CC(C)CC(NC=O)C(=O)NC(Cc1ccccc1)NC(=O)CNC(=O)C(C)NC(=O)OC(C)(C)C (stereo unspecified) please.
Result :: > 100 µM (inactive)

Query :: Report GI50 for CC(C)OC(=O)Nc1c([N+](=O)[O-])cc(C(F)(F)F)cc1[N+](=O)[O-] please.
Result :: > 100 µM (inactive)

Query :: Report GI50 for CCOC(=O)C1=C(C)N(Cc2ccc(Cl)cc2Cl)C2(O)C=CC(=O)C3C(=O)N(c4ccccc4)C(=O)C132 (stereo unspecified) please.
Result :: 1.36 µM (inactive)

Query :: Report GI50 for C=CCNC(=S)NC=C(C(N)=O)C(N)=O please.
Result :: > 100 µM (inactive)

Query :: Report GI50 for CSCCCNC(=O)[C@H](CSC)NC(=O)c1csc(CCNC(=O)[C@@H](NSc2ccccc2[N+](=O)[O-])C(C)O)n1 (stereo partly specified) please.
Result :: > 100 µM (inactive)

Query :: Report GI50 for Oc1cc(-c2ccc(Cl)cc2)cn2c1nc1ccccc12 please.
Result :: > 100 µM (inactive)

Query :: Report GI50 for C=CC(C)(C)N[C@@H](C(=O)N1CCC[C@H]1c1nc(-c2nc(C(=O)OCC=C(C)C)c(C)o2)c(C)o1)C(C)C please.
Result :: 17.2 µM (inactive)

Query :: Report GI50 for CN(C(=O)c1ccc(Cl)cc1)C(=S)N1CCN(c2ccccc2)CC1 please.
Result :: > 100 µM (inactive)

Query :: Report GI50 for Cc1cccc(NC(Nc2cccc(C)c2)=C(C(Cl)=C(Cl)Cl)[N+](=O)[O-])c1 please.
Result :: 18.7 µM (inactive)

Query :: Report GI50 for N#Cc1ncc(C(Cl)Cl)nc1Cl please.
Result :: 8.67 µM (inactive)

Query :: Report GI50 for Oc1cccc2ccc(Br)nc12 please.
Result :: > 100 µM (inactive)

Query :: Report GI50 for O=c1oc2ccccc2c(O)c1C1c2c(c3ccccc3oc2=O)Oc2c1c(=O)oc1ccccc21 please.
Result :: 53.5 µM (inactive)

Query :: Report GI50 for FC(F)(F)c1nc2cc(SSc3cc4nc(C(F)(F)F)[nH]c4cc3Cl)c(Cl)cc2[nH]1 please.
Result :: > 100 µM (inactive)

----------
- Tested on: A498
- method.notes: NCI tumour cell line growth inhibition, 48 h
Activity calls are given as the source filed them. Rule as the data show it: active = GI50 up to about 1.1 µM and inactive = higher.
Bench note: report the call from yes (active), no (inactive)

Query :: For this compound, state the assay outcome: C=CC(Cl)(CBr)CCC(Br)=C(C)C (configuration not stated)
Result :: no

Query :: For this compound, state the assay outcome: O=C1Nc2ccc(Br)cc2/C1=C/C(=O)c1ccccc1
Result :: no

Query :: For this compound, state the assay outcome: CC(=O)OC(C)c1cc2c(s1)C(=O)c1scc(C(C)OC(C)=O)c1C2=O (configuration not stated)
Result :: yes

Query :: For this compound, state the assay outcome: COC(=O)[C@H](CCSC)NC(=O)N[C@H](C)c1ccccc1
Result :: no

Query :: For this compound, state the assay outcome: Cc1cc(=O)cc2sc3c(C)cccc3nc1-2
Result :: no

Query :: For this compound, state the assay outcome: CC1COC(c2cn[nH]c2C(N)=O)C1O (configuration not stated)
Result :: no

Query :: For this compound, state the assay outcome: O=S(=O)(Nc1ccccc1S(=O)(=O)c1ccccc1)c1ccccc1
Result :: no

Query :: For this compound, state the assay outcome: CS(=O)(=O)c1nc(Cl)c(Cl)c(C#N)c1Cl
Result :: no

Query :: For this compound, state the assay outcome: CCCCCCCC(=O)NS(=O)(=O)c1ccccc1
Result :: no

Query :: For this compound, state the assay outcome: O=C(O)CCc1nc(-c2ccccc2-n2cccc2)no1
Result :: no

Query :: For this compound, state the assay outcome: C=CCSc1ncnc2c1ncn2C1OC(CO)C(O)C1O (configuration not stated)
Result :: no

Query :: For this compound, state the assay outcome: O=C(CN1CCOCC1)c1ccc2c(c1)oc(=O)n2CCN1CCOCC1
Result :: no
